Target System: T1, Human PD-1-His protein (ACROBiosystems, # PD1-H5221) (human, UniProt Q15116 25-167)
T1 construct: Bought reagent, coated on the ELISA plate; also called human PD-1 protein; human PD-1 antigen; not shown: His tag
T1 sequence (Q15116 25-167 limits assumed): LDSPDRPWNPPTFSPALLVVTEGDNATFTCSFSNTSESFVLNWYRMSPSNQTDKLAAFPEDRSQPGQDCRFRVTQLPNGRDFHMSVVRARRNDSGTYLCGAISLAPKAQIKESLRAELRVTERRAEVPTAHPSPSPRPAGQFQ
Test: ELISA, plate-coated human PD-1-His
Method: Human PD-1-His protein (ACROBiosystems, # PD1-H5221) was diluted to 2 μg/mL with PBS, added to a 96-well plate (Corning, cat#9018) at 100 μL/well, and incubated at 4° C. overnight. […] The reactions were terminated by adding 50 μL of stop buffer (BBI life sciences, #E661006-0200) to each well, and the absorbance values at 450 nm (OD450) were measured using a microplate reader (PerkinElemer, #Enspire). The half maximal effective concentration (EC₅₀) was calculated from the measurement results.
Outcome Measure: OD Maximum
Please give only the number in your answer, with no unit.

| Binder | OD Maximum |
| --- | --- |
| PR002474 (antibody, human IgG1, V domains shown, Heavy-chain-only antibody (HCAb), human IgG1 Fc; two heavy chains, no light chain; also called R4004P547D3) VH: EVQLVETGGGLIQPGGSLRLSCAASGFNVSSHYMSWVRQAPGKGLEWVSIIHSGGSTYYADSVKGRFTISRDNSKNRLYLQMNSLRADDTAVYYCARATAVAEKNGYNYPFNYWGQGTLVTVSS | 2.97 |
| PR002476 (antibody, human IgG1, V domains shown, Heavy-chain-only antibody (HCAb), human IgG1 Fc; two heavy chains, no light chain; also called R4004P547H11) VH: EVQLVETGGGLIQPGGSLRLSCAASGFNVSSHYMSWVRQAPGKGLEWVSIIHSGGSTYYADSVKGRFTISRDNSKNRLYLQMNSLRAEDTAVYYCARATAVAEKNGYNYPFNYWGQGTLVTVSS | 2.92 |
| PR000674 (antibody, human IgG4 S228P, kappa, V domains shown, Fully human recombinant H2L2 antibody, human IgG4, kappa light chain; also called 4004_12H9C1) VH: QVQLVESGGGVVQPGKSLRLSCTVSGLTFSDNGMHWVRQAPGRGLEWMSVIWYDGSKKYYADSVKGRFTISRDNSKNTLYLQMNNMRVEDTAVYYCATNSDYWGQGTLVTVSS VL: EIVLTQSPATLSLSPGERATLSCRASQSVSSYLAWYQQKPGQAPRLLIYDTSKRATGIPARFSGSGSGTDFTLTISSLEPEDFAVYYCQQHNNWIFTFGPGTKVDIKR | 3.24 |
| PR000673 (antibody, human IgG4 S228P, kappa, V domains shown, Fully human recombinant H2L2 antibody, human IgG4, kappa light chain; also called 4004_10H9A12) VH: QVQLVESGGGVVQPGRSLRLSCAASGFIFSNYGMHWVRQAPGKGLEWVAVIWYDGSKKYYGDSVKGRFTISRDNSKNTLYLQMNSLRDEDTAVYFCARNDDYWGQGTLVTVSS VL: EIVLTQSPATLSFSPGERATLSCRASQSVSSDLAWYQQKPGQAPSLLIYDASNRATGIPARFSGSGSGTDFTLTISSLEPEDFAVYYCHQRNNWPLTFGGGTKVEIKR | 3.09 |

Shift focus to the following entry.
Given the entry PR000676 (antibody, human IgG4 S228P, kappa, V domains shown, Fully human recombinant H2L2 antibody, human IgG4, kappa light chain; also called 4004_1A7A1) VH: QIQLVESGGGVVQPGRSLRLSCAASGFTLSSYGMHWVRQAPGKGLEWVAVILSDGSNKYYADSVKGRFTISRDNSKNTLYLQMNSLRAEDTAVYYCADLGGDVWGQGTTVTVSS VL: EIVLTQSPATLSLSPGERATLSCRASQSVSSYLAWYQQKPGQAPRLLIYDASTRATGIPARFSGSGSGTDFTLTISSLEPEDFAVYYCQQRSNWPLTFGGGTKVEIKR , report its measured OD Maximum.
3.32

Data origin, for the record: patent US20240034792A1
